Each record here notes measured zone of inhibition at 1000 µg/mL.
Test system: Staphylococcus aureus
Experiment: Antimicrobial activity against Staphylococcus aureus at 20 uL of 1 mg/ml by disc diffusion assay
Assay type: functional
Conditions: read-out: IZ
The answer consists of two parts: a number and, after it, its unit.

Consider the reported zone of inhibition at 1000 µg/mL for these compounds:
CC(=O)N1N=C(c2ccc(Cl)cc2)CC1c1cn(-c2ccccc2)nc1-c1ccc(Cl)c(Cl)c1 (stereo unspecified); 21 mm
O=[N+]([O-])c1ccc(N2N=C(c3ccc(F)cc3)CC2c2cn(-c3ccccc3)nc2-c2ccc(Cl)c(Cl)c2)cc1 (stereo unspecified); 20 mm
Clc1ccc(C2=NN(c3ccccc3)C(c3cn(-c4ccccc4)nc3-c3ccc(Cl)c(Cl)c3)C2)cc1 (stereo unspecified); 15 mm
O=CN1N=C(c2ccc(Cl)cc2)CC1c1cn(-c2ccccc2)nc1-c1ccc(Cl)c(Cl)c1 (stereo unspecified); 18 mm
Clc1ccc(C2=NNC(c3cn(-c4ccccc4)nc3-c3ccc(Cl)c(Cl)c3)C2)cc1 (stereo unspecified); 21 mm
CCC(=O)N1N=C(c2ccc(F)cc2)CC1c1cn(-c2ccccc2)nc1-c1ccc(Cl)c(Cl)c1 (stereo unspecified); 23 mm

What the record says about O=CN1N=C(c2ccc(F)cc2)CC1c1cn(-c2ccccc2)nc1-c1ccc(Cl)c(Cl)c1 (stereo unspecified) : zone of inhibition at 1000 µg/mL is 13 mm

What the record says about Cc1ccc(C2=NN(c3ccc([N+](=O)[O-])cc3)C(c3cn(-c4ccccc4)nc3-c3ccc(Cl)c(Cl)c3)C2)cc1 (stereo unspecified) : zone of inhibition at 1000 µg/mL is 21 mm

###

Tested on: Rattus norvegicus
Test: Analgesic activity in Wistar rat assessed as tail flick latency time at 50 mg/kg, po measured 90 mins post dose by tail flick method (reference value: 3.7 +/- 0.1 secs)
Assay type: functional
parameter: Time (s)
Report the figure in s without appending any unit label.

Consider the reported Time for these molecules:
CCC(=O)N1N=C(c2ccc(C)cc2)CC1c1cn(-c2ccccc2)nc1-c1ccc(Cl)c(Cl)c1 (stereo not drawn); 5.9
Cc1ccc(C2=NN(c3ccccc3)C(c3cn(-c4ccccc4)nc3-c3ccc(Cl)c(Cl)c3)C2)cc1 (stereo not drawn); 6.6
CCC(=O)N1N=C(c2ccc(Cl)cc2)CC1c1cn(-c2ccccc2)nc1-c1ccc(Cl)c(Cl)c1 (stereo not drawn); 5.4
CC(=O)N1N=C(c2ccc(Cl)cc2)CC1c1cn(-c2ccccc2)nc1-c1ccc(Cl)c(Cl)c1 (stereo not drawn); 5.1

What the record says about O=CN1N=C(c2ccc(Cl)cc2)CC1c1cn(-c2ccccc2)nc1-c1ccc(Cl)c(Cl)c1 (stereo not drawn) : Time is 4.3

What the record says about O=CN1N=C(c2ccc(F)cc2)CC1c1cn(-c2ccccc2)nc1-c1ccc(Cl)c(Cl)c1 (stereo not drawn) : Time is 6.6

What the record says about CC(=O)N1N=C(c2ccc(F)cc2)CC1c1cn(-c2ccccc2)nc1-c1ccc(Cl)c(Cl)c1 (stereo not drawn) : Time is 6.6

What the record says about Cc1ccc(C2=NN(c3ccc([N+](=O)[O-])cc3)C(c3cn(-c4ccccc4)nc3-c3ccc(Cl)c(Cl)c3)C2)cc1 (stereo not drawn) : Time is 6.6

What the record says about CC(=O)N1N=C(c2ccc(C)cc2)CC1c1cn(-c2ccccc2)nc1-c1ccc(Cl)c(Cl)c1 (stereo not drawn) : Time is 5.5

What the record says about O=[N+]([O-])c1ccc(N2N=C(c3ccc(F)cc3)CC2c2cn(-c3ccccc3)nc2-c2ccc(Cl)c(Cl)c2)cc1 (stereo not drawn) : Time is 5.2

What the record says about Fc1ccc(C2=NN(c3ccccc3)C(c3cn(-c4ccccc4)nc3-c3ccc(Cl)c(Cl)c3)C2)cc1 (stereo not drawn) : Time is 4.8

What the record says about O=[N+]([O-])c1ccc(N2N=C(c3ccc(Cl)cc3)CC2c2cn(-c3ccccc3)nc2-c2ccc(Cl)c(Cl)c2)cc1 (stereo not drawn) : Time is 6.6

What the record says about Clc1ccc(C2=NN(c3ccccc3)C(c3cn(-c4ccccc4)nc3-c3ccc(Cl)c(Cl)c3)C2)cc1 (stereo not drawn) : Time is 4.9

What the record says about Cc1ccc(C2=NNC(c3cn(-c4ccccc4)nc3-c3ccc(Cl)c(Cl)c3)C2)cc1 (stereo not drawn) : Time is 6.5

These data points were gathered from ChEMBL document CHEMBL3612037.
